B1: WEE1 (parent)
chain: FISRTSIPNAASEEGDEDDWASNK

Variants of: B1
Assay: protein stability index of a GFP-peptide fusion (GPS, HEK-293T) (PSI 1-6); higher = more stable;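 note: lentivirally expressed fusions sorted by FACS into six bins by GFP to DsRed ratio, PSI derived from sequencing read proportions per bin multiplied by bin number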
Conditions: c terminus: a fixed tail appended
assay-metric: protein stability index

[[record]]
variant_name = "I2F"
assay_metric = "protein stability index"
quantitative_result = 5.38

[[record]]
variant_name = "K24G"
assay_metric = "protein stability index"
quantitative_result = 4.01

[[record]]
variant_name = "W20Q"
assay_metric = "protein stability index"
quantitative_result = 4.7

[[record]]
variant_name = "K24E"
assay_metric = "protein stability index"
quantitative_result = 4.69

[[record]]
variant_name = "S12A"
assay_metric = "protein stability index"
quantitative_result = 3.64

[[record]]
variant_name = "E13D"
assay_metric = "protein stability index"
quantitative_result = 3.68

[[record]]
variant_name = "E13P"
assay_metric = "protein stability index"
quantitative_result = 4.43

[[record]]
variant_name = "S12Q"
assay_metric = "protein stability index"
quantitative_result = 4.3

[[record]]
variant_name = "N23E"
assay_metric = "protein stability index"
quantitative_result = 4.22

[[record]]
variant_name = "K24T"
assay_metric = "protein stability index"
quantitative_result = 4.12

[[record]]
variant_name = "S22P"
assay_metric = "protein stability index"
quantitative_result = 3.14

[[record]]
variant_name = "E17K"
assay_metric = "protein stability index"
quantitative_result = 3.73

[[record]]
variant_name = "K24I"
assay_metric = "protein stability index"
quantitative_result = 4.12

[[record]]
variant_name = "A21E"
assay_metric = "protein stability index"
quantitative_result = 4.5

[[record]]
variant_name = "D19E"
assay_metric = "protein stability index"
quantitative_result = 3.96

[[record]]
variant_name = "N23A"
assay_metric = "protein stability index"
quantitative_result = 3.94

[[record]]
variant_name = "D18C"
assay_metric = "protein stability index"
quantitative_result = 3.28

[[record]]
variant_name = "I7N"
assay_metric = "protein stability index"
quantitative_result = 4.35

[[record]]
variant_name = "E14W"
assay_metric = "protein stability index"
quantitative_result = 3.02

[[record]]
variant_name = "D16L"
assay_metric = "protein stability index"
quantitative_result = 3.83

[[record]]
variant_name = "S3N"
assay_metric = "protein stability index"
quantitative_result = 4.62

[[record]]
variant_name = "N23F"
assay_metric = "protein stability index"
quantitative_result = 3.94


The reported numbers originate from the supplement of paper PMC10567573.
